- Test system: ICS
- Protocol Notes: qHTS profiling for inhibitors of Plasmodium falciparum proliferation (AID 504749); further: nearly all actives have a fitted effect of over 60% in size
- Condition Summary: P. falciparum in erythrocytes, SYBR Green DNA, 72 h; series mostly up to 28.7 µM
Records with an inconclusive call do not appear. Calls of active or inactive are those of the source. The call rests on the fitted dose curve; in most records, active means well fitted inhibition curve with a large enough effect; inconclusive means small, poorly fitted or top-dose-only effect; inactive means flat fitted curve, though single readings scatter.
Possible outcomes: active, inactive

Compound	Category
CCCCCc1ccc(C)cc1O	active
O=C(O)[C@H]1C(=CCO)O[C@H]2CC(=O)N12	inactive
CC(=O)Oc1cc(C(F)(F)F)ccc1C(=O)O	inactive
OCCOCCOCCO	inactive
Cc1ncc[nH]1	inactive
N[C@@H](Cc1cc(I)c(Oc2ccc(O)c(I)c2)c(I)c1)C(=O)O	active
N[C@H](CC(=O)O)C(=O)O	inactive
CO/N=C(/C(=O)N[C@@H]1C(=O)N2C(C(=O)O)=C(COC(N)=O)CS[C@H]12)c1ccco1	active
COc1ccc2nc(NC(=O)Nc3ccccc3)sc2c1	active
C[C@H](O)CN(C)C	inactive
COC(=O)C(CN)c1c[nH]c2ccc(OC)cc12 (stereo not drawn)	inactive
CN1c2c(nc(N)[nH]c2=O)NCC1CNc1ccc(C(=O)NC(CCC(=O)O)C(=O)O)cc1 (stereo not drawn)	inactive
Cc1ccccn1	inactive

###

- System: TAB113
- Protocol Notes: qHTS profiling for inhibitors of Plasmodium falciparum proliferation (AID 504749); further: nearly all actives have a fitted effect of over 60% in size
- Condition Summary: P. falciparum in erythrocytes, SYBR Green DNA, 72 h; series mostly up to 28.7 µM
Records with an inconclusive call do not appear. Calls of active or inactive are those of the source. Calls follow the shape of the dose curve; as a rule, active = well fitted inhibition curve with a large enough effect; inconclusive = small, poorly fitted or top-dose-only effect; inactive = flat fitted curve, though single readings scatter.
Possible outcomes: Yes for active, No for inactive

Molecule	Category
CC/C(=C(/CC)c1ccc(OP(=O)(O)O)cc1)c1ccc(OP(=O)(O)O)cc1	No
O=[n+]1ccn([O-])c2ccccc21	No
COC1=C(OC)C(=O)C(C/C=C(\C)CC/C=C(\C)CC/C=C(\C)CC/C=C(\C)CC/C=C(\C)CC/C=C(\C)CC/C=C(\C)CC/C=C(\C)CC/C=C(\C)CCC=C(C)C)=C(C)C1=O	No
CC(C)[C@@H](N)C(=O)O	No
Nc1nccs1	No
CCCCCc1ccc(C)cc1O	No
CC(/C=C/C=C(\C)C(=O)O[C@@H]1O[C@H](CO[C@@H]2O[C@H](CO)[C@@H](O)[C@H](O)[C@H]2O)[C@@H](O)[C@H](O)[C@H]1O)=C\C=C\C=C(C)\C=C\C=C(/C)C(=O)O[C@@H]1O[C@H](CO[C@@H]2O[C@H](CO)[C@@H](O)[C@H](O)[C@H]2O)[C@@H](O)[C@H](O)[C@H]1O	No
CC(C)(C)c1ccc2c(S(=O)(=O)O)c(C(C)(C)C)ccc2c1	No
OCC(O)CO	No
CCC(Cc1c(I)cc(I)c(O)c1I)C(=O)O (stereo unspecified)	No
CN1C(=O)OC(C)(C)C1=O	No
Cc1c(C)c2c(c(C)c1OC(=O)CCC(=O)O)CC[C@@](C)(CCC[C@H](C)CCC[C@H](C)CCCC(C)C)O2	No
Cn1c(=O)c2c(ncn2CCOC(=O)C(C)(C)Oc2ccc(Cl)cc2)n(C)c1=O	No
CC12CCC(C[N+](C)(CCC[N+](C)(C)C)C1)C2(C)C (stereo unspecified)	No
CC(C)CCCC(C)NC(C)C (stereo unspecified)	No
CCCCC(CC)COS(=O)(=O)O (stereo unspecified)	No
Cc1cc(C)c(NC(=O)C[C@H](CC(=O)O)c2cccc3ccccc23)c(C(=O)N2CCC3(CCCC3)CC2)c1	No
CCCCCCCCCCCCCCCCCC(=O)OCC(C)O (stereo unspecified)	No
CN1C(C(=O)Nc2ccccn2)C(=O)c2sc(Cl)cc2S1(=O)=O (stereo unspecified)	No
O=C(O)[C@H]1C(=CCO)O[C@H]2CC(=O)N12	No
CC1=CC(=C(c2ccc(N)cc2)c2ccc(N)cc2)C=CC1=N	Yes

###

- Test system: CP325
- Protocol Notes: qHTS profiling for inhibitors of Plasmodium falciparum proliferation (AID 504749); further: nearly all actives have a fitted effect of over 60% in size
- Condition Summary: P. falciparum in erythrocytes, SYBR Green DNA, 72 h; series mostly up to 28.7 µM
- Protocol: NIH National Institute of Allergy and Infectious Diseases [NIAID] NIH Chemical Genomics Center [NCGC] […] Because mature erythrocytes lack DNA, only Plasmodium-derived DNA is detected. NCGC Assay Protocol Summary: The SYBR Green viability assay was adapted from a method described previously (Plouffe et al., 2008). […] The following morning, fluorescence intensity at 485(14) nm excitation and 535(25) nm emission wavelengths was measured on an EnVision (Perkin Elmer) plate reader. […]
Results filed as inconclusive are left out. The source made the active and inactive calls. Calls follow the shape of the dose curve; as a rule, active = well fitted inhibition curve with a large enough effect; inconclusive = small, poorly fitted or top-dose-only effect; inactive = flat fitted curve, though single readings scatter.
Possible outcomes: active, inactive

Compound	Category
N[C@H](CC(=O)O)C(=O)O	inactive
C=CC[C@@H]1/C=C(\C)C[C@H](C)C[C@H](OC)[C@H]2O[C@@](O)(C(=O)C(=O)N3CCCC[C@H]3C(=O)O[C@H](/C(C)=C/[C@@H]3CC[C@@H](O)[C@H](OC)C3)[C@H](C)[C@@H](O)CC1=O)[C@H](C)C[C@@H]2OC	active
O=C(O)COc1ccc(CCNS(=O)(=O)c2ccccc2)s1	inactive
CC(=O)Nc1c(I)c(C(=O)O)c(I)c(N(C)C(C)=O)c1I	inactive
CCCCC[C@H](O)/C=C/[C@H]1[C@H](O)CC(=O)[C@@H]1C/C=C\CCCC(=O)O	inactive
CCCCCCCCCCCCOCCCN	inactive
FCOC(C(F)(F)F)C(F)(F)F	inactive
CCCCC(CC)CCC(CC(C)C)OS(=O)(=O)O (configuration not stated)	inactive
CCCc1ccc(C(=O)O)cc1	inactive
O=C(CCCCCCCCCCCCC1CCCC1)Nc1ccc(S(=O)(=O)c2ccc(NC(=O)CCCCCCCCCCCCC3CCCC3)cc2)cc1	inactive
CCN(CC)CCOc1ccccc1OC	inactive
CNC(=O)C[C@@H](N)C(=O)N[C@@H](C(=O)N[C@@H]1C(=O)N2[C@@H]1SC(C)(C)[C@@H]2C(=O)O)c1ccc(O)cc1	inactive
NC(=S)NS(=O)(=O)c1ccc(N)cc1	inactive
Cn1c(=O)c2c(ncn2CCOC(=O)C(C)(C)Oc2ccc(Cl)cc2)n(C)c1=O	inactive
CC(C)c1nc(N(C)S(C)(=O)=O)nc(-c2ccc(F)cc2)c1/C=C/C(O)CC(O)CC(=O)O (configuration not stated)	inactive
CCCCC	inactive
C=CCCCCCCCCC(=O)OC	inactive
CCN(CC)CCCC(C)Nc1cc(/C=C/c2ccccc2Cl)nc2cc(Cl)ccc12 (configuration not stated)	active
Cc1cc(=O)c(C(=O)N[C@@H](C(=O)N[C@@H]2C(=O)N3C(C(=O)O)=C(CSc4nnnn4C)CS[C@H]23)c2ccc(O)cc2)c[nH]1	inactive
CCOC(=S)SSC(=S)OCC	inactive
CNC(=O)c1c(I)c(C(=O)NCC(=O)Nc2c(I)c(C(=O)O)c(I)c(C(=O)NCCO)c2I)c(I)c(N(C)C(C)=O)c1I	inactive
COc1ccc2c(=O)c(C)c(-c3ccccc3)oc2c1CN(C)C	inactive

###

- System: CP192
- Protocol Notes: qHTS profiling for inhibitors of Plasmodium falciparum proliferation (AID 504749); further: nearly all actives have a fitted effect of over 60% in size
- Condition Summary: P. falciparum in erythrocytes, SYBR Green DNA, 72 h; series mostly up to 28.7 µM
- Protocol: NIH National Institute of Allergy and Infectious Diseases [NIAID] NIH Chemical Genomics Center [NCGC] […] Because mature erythrocytes lack DNA, only Plasmodium-derived DNA is detected. NCGC Assay Protocol Summary: The SYBR Green viability assay was adapted from a method described previously (Plouffe et al., 2008). […] The following morning, fluorescence intensity at 485(14) nm excitation and 535(25) nm emission wavelengths was measured on an EnVision (Perkin Elmer) plate reader. […]
Inconclusive results are not listed. Calls of active or inactive are those of the source. Calls come from the whole dose curve; as a rule, active = well fitted inhibition curve with a large enough effect; inconclusive = small, poorly fitted or top-dose-only effect; inactive = flat fitted curve, though single readings scatter.

Compound	Target	outcome
CCSc1ccc2c(c1)N(CCCN1CCN(C)CC1)c1ccccc1S2	CP192	inactive
FCOC(C(F)(F)F)C(F)(F)F	CP192	inactive
Cc1cc(C)c(NC(=O)C[C@H](CC(=O)O)c2cccc3ccccc23)c(C(=O)N2CCC3(CCCC3)CC2)c1	CP192	inactive
O=C(CCCN1CCN2CCCC2C1)c1ccc(F)cc1 (configuration not stated)	CP192	inactive
NCC(O)CC(=O)O (configuration not stated)	CP192	inactive
COc1cc(S(C)=O)ccc1-c1nc2ncccc2[nH]1 (configuration not stated)	CP192	inactive
CN(C)C=Nc1c(I)cc(I)c(CCC(=O)O)c1I	CP192	inactive
O=S(=O)(O)CC(S)CS (configuration not stated)	CP192	inactive
CCN(CC)C(=O)c1cccnc1	CP192	inactive
OCc1ccccc1	CP192	inactive
CN(C)CCC=C1c2ccccc2C(C)(C)c2ccccc21	CP192	inactive
CCCc1nc(C(C)(C)O)c(C(=O)OCc2oc(=O)oc2C)n1Cc1ccc(-c2ccccc2-c2nn[nH]n2)cc1	CP192	inactive

Recorded values, source PubChem BioAssay (NCATS).
